# credit: the kinase profiling compilation of Christmann-Franck et al. (2016)

Assayed target: PHKG2 (human)
Method description: radiometric filter-binding kinase assay, Kinase HotSpot
Cond: compound 0.5 µM; ATP 10 µM
Parameter measured: residual activity

Given the molecule N#C/C(=C(/N)Sc1ccc(N)cc1)c1ccccc1C(F)(F)F , what is its reported residual activity?
96.1%

Need residual activity, item O=C(Nc1cccc(Nc2nccc(Nc3cccc(C(F)(F)F)c3)n2)c1)C1CC1
107%

Which residual activity is listed for Cc1[nH]c(/C=C2\C(=O)Nc3ccc(S(=O)(=O)N(C)c4cccc(Cl)c4)cc32)c(C)c1C(=O)N1CCN(C)CC1 ?
96%

Find the recorded residual activity belonging to CCN(CC)C(=O)c1ccc(Nc2nc(OCC3CCCCC3)c3nc[nH]c3n2)cc1 and report it.
96.6%

Which residual activity is listed for CNC(=O)c1cc(Oc2ccc(NC(=O)Nc3ccc(Cl)c(C(F)(F)F)c3)cc2)ccn1 ?
91.3%

Return reported residual activity; argument: O=S(=O)(c1cccc2cnccc12)N1CCCNCC1
95.4%

What value of residual activity has been recorded for this entry: CCN(CC)CCNC(=O)c1c(C)[nH]c(/C=C2\C(=O)Nc3ccc(Cl)cc32)c1C
16.6%

Please report the recorded residual activity for CC(C)N(CCC(=O)c1ccc2ccccc2c1)Cc1ccccc1 .
99.9%

Return reported residual activity; argument: O=C1Nc2ccc(Cl)cc2/C1=C/c1cc(Cl)c(O)c(Cl)c1
98.4%

Requested read-out: residual activity. Entry: O=C1NC(=O)c2c1c1c3ccccc3n3c1c1c2c2ccccc2n1C1CCC3O1
75.6%

Item CCOC(=O)c1c(C)[nH]c(/C=C2\C(=O)Nc3ccccc32)c1C has what recorded residual activity?
96.2%

Entry CC#CC(=O)Nc1cc2c(Nc3ccc(F)c(Cl)c3)ncnc2cn1 has what residual activity?
99%

So what does the record say about residual activity for O=C1NC(=O)C(c2cn(CCCn3ccnc3)c3ccccc23)=C1Nc1ccccc1 ?
107%

For O=C1NC(=O)/C(=C/c2ccc3c(c2)OC(F)(F)O3)S1 , what is its reported residual activity?
95.2%

Report residual activity for c1ccc(-c2n[nH]cc2-c2ccnc3ccccc23)nc1 please.
97.7%

Query (molecule): CCC(=O)Nc1ccc2ncnc(Nc3cccc(Br)c3)c2c1 ; field requested: residual activity
109%

Can you look up the measured residual activity of CNc1cc2c(Nc3cccc(Br)c3)ncnc2cn1 for me?
113%

Could you tell me which residual activity is on file for c1ccc(-c2n[nH]c3c2oc2ccccc23)cc1 ?
112%

// returns reported residual activity for input CC[n+]1c(/C=C/N(C)c2ccccc2)n(-c2ccccc2)c2ccc(-c3nc4ccccc4s3)cc21
102%

Please look up its residual activity: Cc1ccc(S(=O)(=O)/C=C/C#N)cc1
109%

Form field: reported residual activity of CO[C@H]1CC2CC[C@@H](C)[C@@](O)(O2)C(=O)C(=O)N2CCCC[C@H]2C(=O)OC([C@H](C)C[C@@H]2CC[C@@H](O)[C@H](OC)C2)CC(=O)[C@H](C)/C=C(\C)[C@@H](O)[C@@H](OC)C(=O)[C@H](C)C[C@H](C)/C=C/C=C/C=C/1C (stereo partly specified)
108%

Sample COc1ccc(COc2ccc(Cc3cnc(N)nc3N)cc2OC)cc1 — what was its residual activity?
106%

I would be grateful if you could share the reported residual activity for Nc1ccc2ncnc(NCCc3ccc(Oc4ccccc4)cc3)c2c1 .
98.7%

What residual activity value was documented for this molecule, Nc1cccc(-c2cc3c(Oc4cccc(O)c4)ncnc3[nH]2)c1 ?
109%

Reported residual activity, molecule Nc1ncnc2[nH]nc(Nc3ccc(F)cc3)c12 : ____
101%

Give its residual activity value. Item: O=c1cc(N2CCOCC2)oc2c1ccc1ccccc12
99.8%

State the recorded residual activity for this entry: CCCC(=O)Oc1ccc2[nH]c(C(=O)c3cc4ccccc4[nH]3)cc2c1
117%

Recorded residual activity of Cc1ccc(NC2=CC(=O)c3sc(C)nc3C2=O)cc1 , please.
96.3%

Which value of residual activity has been reported for Nc1ncnc2c1c(-c1ccc(Oc3ccccc3)cc1)cn2C1CCCC1 in the records?
96.9%

Given N#CC(C#N)=C(N)/C(C#N)=C/c1ccc(O)cc1 , state its recorded residual activity.
96.7%

Which residual activity value is on record for COc1cc2ncnc(Nc3cccc(Cl)c3)c2cc1OC ?
92.6%
